- System: Mus musculus
- ASSAY COMMENT: Antinociceptive activity in ip dosed Swiss albino mouse assessed as latency time after 120 mins by hot plate method
- Assay type: functional
MEASURED ENDPOINT: Activity
Could you kindly put the unit after your number?

Observe how each entry below is paired with its result.
C=CCc1nc(-c2ccccc2)c(-c2ccccc2)[nH]1 = 5.47 s
C(=C\c1nc(-c2ccccc2)c(-c2ccccc2)[nH]1)/c1ccccc1 = 6.12 s

Note: attention shifts to another entry.
[ask] Look up Activity: COc1cc(-c2nc(-c3ccccc3)c(-c3ccccc3)[nH]2)ccc1O
[reply] 8.99 s

====

- System: Mus musculus
- ASSAY COMMENT: Antinociceptive activity in ip dosed Swiss albino mouse assessed as latency time by tail flick method
- Type: functional
MEASURED ENDPOINT: Activity (s)
Hi! Could you send only the number? It should be in s, unit omitted.

C(=C\c1nc(-c2ccccc2)c(-c2ccccc2)[nH]1)/c1ccccc1 = 4.16
c1ccc(-c2nc[nH]c2-c2ccccc2)cc1 = 3.9

Note: attention shifts to another entry.
[ask] Look up Activity: Clc1ccccc1-c1nc(-c2ccccc2)c(-c2ccccc2)[nH]1
[reply] 4.2

====

- System: Mus musculus
- ASSAY COMMENT: Antinociceptive activity in ip dosed Swiss albino mouse assessed as latency time by tail flick method
- Type: functional
MEASURED ENDPOINT: Activity
Could you kindly put the unit after your number?

Observe how each entry below is paired with its result.
O=[N+]([O-])c1cccc(-c2nc(-c3ccccc3)c(-c3ccccc3)[nH]2)c1 = 4.09 s
Cc1ccc(-c2nc(-c3ccccc3)c(-c3ccccc3)[nH]2)cc1 = 4.14 s
CN(C)c1ccc(-c2nc(-c3ccccc3)c(-c3ccccc3)[nH]2)cc1 = 4.26 s
Cc1cccc(-c2nc(-c3ccccc3)c(-c3ccccc3)[nH]2)c1 = 4.1 s

[ask] Look up Activity: Nc1ccc(-c2nc(-c3ccccc3)c(-c3ccccc3)[nH]2)cc1
[reply] 4.22 s

[ask] Query COc1ccccc1-c1nc(-c2ccccc2)c(-c2ccccc2)[nH]1 next
[reply] 4.21 s

[ask] Query O=[N+]([O-])c1ccccc1-c1nc(-c2ccccc2)c(-c2ccccc2)[nH]1 next
[reply] 4.09 s

[ask] Query Fc1ccc(-c2nc(-c3ccccc3)c(-c3ccccc3)[nH]2)cc1 next
[reply] 4.55 s

[ask] Query c1ccc(-c2nc(-c3ccccc3)c(-c3ccccc3)[nH]2)cc1 next
[reply] 4.13 s

[ask] Query COc1cc(-c2nc(-c3ccccc3)c(-c3ccccc3)[nH]2)ccc1O next
[reply] 4.16 s

[ask] Query C=CCc1nc(-c2ccccc2)c(-c2ccccc2)[nH]1 next
[reply] 3.98 s

[ask] Query Clc1cccc(-c2nc(-c3ccccc3)c(-c3ccccc3)[nH]2)c1 next
[reply] 4.12 s

====

- System: Rattus norvegicus
- ASSAY COMMENT: Antiinflammatory activity assessed as reduction of carrageenan-induced paw volume in intraperitoneally dosed Wistar rat after 3 hrs
- Format: functional
- Parameters: scale not given: the % may be the effect or the level left
Binning of Activity into classes: group A = under 30%, group B = from 30% up to 60%, group C = 60% and over

Study these solved cases before continuing.
Cc1ccc(-c2nc(-c3ccccc3)c(-c3ccccc3)[nH]2)cc1 = group A
C=CCc1nc(-c2ccccc2)c(-c2ccccc2)[nH]1 = group B
COc1ccc(-c2nc(-c3ccccc3)c(-c3ccccc3)[nH]2)cc1 = group C
Clc1ccc(-c2nc(-c3ccccc3)c(-c3ccccc3)[nH]2)cc1 = group C
Cc1nc(-c2ccccc2)c(-c2ccccc2)[nH]1 = group A

[ask] Into which category would you place COc1cccc(-c2nc(-c3ccccc3)c(-c3ccccc3)[nH]2)c1 ?
[reply] group B

[ask] Query Cc1ccccc1-c1nc(-c2ccccc2)c(-c2ccccc2)[nH]1 next
[reply] group A

[ask] Query Clc1ccccc1-c1nc(-c2ccccc2)c(-c2ccccc2)[nH]1 next
[reply] group C

[ask] Query Clc1cccc(-c2nc(-c3ccccc3)c(-c3ccccc3)[nH]2)c1 next
[reply] group B

[ask] Query Brc1ccc(-c2nc(-c3ccccc3)c(-c3ccccc3)[nH]2)cc1 next
[reply] group C

[ask] Query Ic1ccc(-c2nc(-c3ccccc3)c(-c3ccccc3)[nH]2)cc1 next
[reply] group A

[ask] Query Oc1ccc(-c2nc(-c3ccccc3)c(-c3ccccc3)[nH]2)cc1 next
[reply] group C

[ask] Query O=[N+]([O-])c1cccc(-c2nc(-c3ccccc3)c(-c3ccccc3)[nH]2)c1 next
[reply] group A

[ask] Query Cc1cccc(-c2nc(-c3ccccc3)c(-c3ccccc3)[nH]2)c1 next
[reply] group A

[ask] Query C(=C\c1nc(-c2ccccc2)c(-c2ccccc2)[nH]1)/c1ccccc1 next
[reply] group B

[ask] Query COc1ccccc1-c1nc(-c2ccccc2)c(-c2ccccc2)[nH]1 next
[reply] group C

[ask] Query O=[N+]([O-])c1ccc(-c2nc(-c3ccccc3)c(-c3ccccc3)[nH]2)cc1 next
[reply] group A

Source: ChEMBL document CHEMBL1144541
